# experimental system: ERR1 (also known as ERR-α or ERR-1) (Homo sapiens, UniProt P11474)
# assay procedure: TR-FRET assay (disruption of co-activator peptide binding)
# experimental setup: 6His-tagged ERR1 LBD, GST-hSRC2 co-activator polypeptide; average of 3 independent experiments
endpoint label: EC50

Prompt line: Any idea what EC50 was measured for CN1CCCN(C2=NC(=O)/C(=C/c3ccc4c(cnn4Cc4ccc(C(F)(F)F)cc4C(F)(F)F)c3)S2)CC1 ?
Response line: 0.0042 µM

Prompt line: And then CN1CCN(C2=NC(=O)/C(=C/c3ccc4c(cnn4Cc4ccc(Cl)cc4C4CC4)c3)S2)CC1 , what is it?
Response line: 0.0144 µM

Prompt line: And then O=C1N=C(N2CCC[C@H]2CN2CCCC2)S/C1=C\c1ccc2c(cnn2Cc2ccc(Cl)cc2C(F)(F)F)c1 , what is it?
Response line: 0.025 µM

Prompt line: And then O=C1N=C(N2CCC(n3cncn3)CC2)S/C1=C\c1ccc2c(cnn2Cc2ccc(Cl)cc2C(F)(F)F)c1 , what is it?
Response line: 0.032 µM

Prompt line: And then CS(=O)(=O)c1ccc(Cn2ncc3cc(/C=C4\SC(N5CCNC(=O)C5)=NC4=O)ccc32)c(Cl)c1 , what is it?
Response line: > 4 µM

Prompt line: And then C[C@@H]1CN(C)CCN1C1=NC(=O)/C(=C/c2ccc3c(cnn3Cc3ccc(C(F)(F)F)cc3C(F)(F)F)c2)S1 , what is it?
Response line: 0.016 µM

Prompt line: And then O=C1N=C(N2CCCNCC2)S/C1=C\c1ccc2c(cnn2Cc2ccc(Cl)cc2C(F)(F)F)c1 , what is it?
Response line: 0.0131 µM

* * *

# experimental system: ERR1 (also known as ERR-α or ERR-1) (Homo sapiens)
# Sequence (P11474 193-421 limits assumed): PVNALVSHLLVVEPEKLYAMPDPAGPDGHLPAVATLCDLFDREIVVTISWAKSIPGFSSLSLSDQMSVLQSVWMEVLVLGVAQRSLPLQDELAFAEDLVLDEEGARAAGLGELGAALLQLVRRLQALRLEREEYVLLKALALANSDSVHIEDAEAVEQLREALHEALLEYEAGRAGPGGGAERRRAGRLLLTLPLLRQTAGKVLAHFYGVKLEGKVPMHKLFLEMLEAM
# assay procedure: TR-FRET assay (disruption of co-activator peptide binding)
# experimental setup: 6His-tagged ERR1 LBD, GST-hSRC2 co-activator polypeptide; average of 3 independent experiments
Field: EC50. Provide a value for each of the molecules that follow.
Supply the numeric figure in nM, leaving out any unit text.

Prompt line: Lab note: need EC50 for O=C1N=C(N2CCC(c3nnn[nH]3)CC2)S/C1=C\c1ccc2c(cnn2Cc2ccc(Cl)cc2C(F)(F)F)c1 on ERR1 (also known as ERR-α or ERR-1) (Homo sapiens), anyone have it?
Response line: 18.6

Prompt line: And then O=C1N=C(N2CCC(n3cnnn3)CC2)S/C1=C\c1ccc2c(cnn2Cc2ccc(Cl)cc2C(F)(F)F)c1 , what is it?
Response line: 48

Prompt line: And then O=C1N=C(N2CCCN(CC(F)(F)F)CC2)S/C1=C\c1ccc2c(cnn2Cc2ccc(Cl)cc2C(F)(F)F)c1 , what is it?
Response line: 52

Prompt line: And then O=C1N=C(N2CCNC[C@@H]2C(=O)O)S/C1=C\c1ccc2c(cnn2Cc2ccc(C(F)(F)F)cc2C(F)(F)F)c1 , what is it?
Response line: 8.2
